Biological target: SirT2 (Homo sapiens)
Sequence (Q8IXJ6 1-389): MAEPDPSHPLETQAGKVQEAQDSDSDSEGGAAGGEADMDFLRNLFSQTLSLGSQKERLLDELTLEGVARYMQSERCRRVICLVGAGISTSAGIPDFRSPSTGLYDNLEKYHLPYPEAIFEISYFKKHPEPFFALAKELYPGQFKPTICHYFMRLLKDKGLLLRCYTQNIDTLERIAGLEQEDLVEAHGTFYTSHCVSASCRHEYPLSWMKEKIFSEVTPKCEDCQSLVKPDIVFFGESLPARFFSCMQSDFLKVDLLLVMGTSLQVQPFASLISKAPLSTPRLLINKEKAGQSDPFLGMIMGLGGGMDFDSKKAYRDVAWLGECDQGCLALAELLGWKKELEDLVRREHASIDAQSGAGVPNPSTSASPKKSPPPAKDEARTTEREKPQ
Experiment: SirT2 activity (Tables 1 and 2)
Type: biochemical
Settings: Table 2, Activity of representative compounds (conc. in μM)

Entry Smiles	IC50
O=C(O)CSc1nc2sc3c(c2c(=O)n1C1CCCCC1)CCC3	> 10 µM
NC(=O)Cn1c(=O)oc2cc(Br)ccc21	> 10 µM
Nn1c(CCC(=O)O)nc2sc3c(c2c1=O)CCCC3	> 10 µM

====

Target: SirT2 (Homo sapiens, UniProt Q8IXJ6)
Sequence (Q8IXJ6 1-389): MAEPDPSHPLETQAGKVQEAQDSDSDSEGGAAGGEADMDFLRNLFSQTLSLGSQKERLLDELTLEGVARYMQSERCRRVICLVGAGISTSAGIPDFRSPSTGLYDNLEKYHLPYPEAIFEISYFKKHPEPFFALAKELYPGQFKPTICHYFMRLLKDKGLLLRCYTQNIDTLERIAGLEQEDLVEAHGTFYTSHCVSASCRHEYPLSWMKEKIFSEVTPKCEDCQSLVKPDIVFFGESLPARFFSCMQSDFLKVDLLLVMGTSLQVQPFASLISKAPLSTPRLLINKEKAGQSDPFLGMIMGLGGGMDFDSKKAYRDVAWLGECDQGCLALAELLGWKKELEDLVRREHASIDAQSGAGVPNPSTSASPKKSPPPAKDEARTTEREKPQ
Assay: SirT2 activity (Tables 1 and 2)
Format: biochemical
Conditions: Table 1, Activity of Triazoles (conc. in μM)
Property: IC50

Entry Smiles	Observed Result
NC(=O)CSc1nnc(Cc2c[nH]c3ccccc23)n1Cc1ccccc1	> 10 µM
Cc1ccc(-n2c(SCC(N)=O)nnc2-c2ccccc2Br)cc1	1 to 10 µM
Cc1ccc(-n2c(Cc3ccccc3)nnc2SCC(N)=O)cc1	> 10 µM
COc1ccc(-n2c(COc3cccc4ccccc34)nnc2SCC(N)=O)cc1	> 10 µM

====

molecular target: human SirT1 (Homo sapiens); construct: purchased Biomol SE-239; test: SirT1 Fluor de Lys enzymatic deacetylase assay; type: biochemical; settings: Table 3, p53-382 Fluor de Lys substrate; read-out: SirT1 p53-382-FdL IC50
Sequence (Q96EB6 whole entry): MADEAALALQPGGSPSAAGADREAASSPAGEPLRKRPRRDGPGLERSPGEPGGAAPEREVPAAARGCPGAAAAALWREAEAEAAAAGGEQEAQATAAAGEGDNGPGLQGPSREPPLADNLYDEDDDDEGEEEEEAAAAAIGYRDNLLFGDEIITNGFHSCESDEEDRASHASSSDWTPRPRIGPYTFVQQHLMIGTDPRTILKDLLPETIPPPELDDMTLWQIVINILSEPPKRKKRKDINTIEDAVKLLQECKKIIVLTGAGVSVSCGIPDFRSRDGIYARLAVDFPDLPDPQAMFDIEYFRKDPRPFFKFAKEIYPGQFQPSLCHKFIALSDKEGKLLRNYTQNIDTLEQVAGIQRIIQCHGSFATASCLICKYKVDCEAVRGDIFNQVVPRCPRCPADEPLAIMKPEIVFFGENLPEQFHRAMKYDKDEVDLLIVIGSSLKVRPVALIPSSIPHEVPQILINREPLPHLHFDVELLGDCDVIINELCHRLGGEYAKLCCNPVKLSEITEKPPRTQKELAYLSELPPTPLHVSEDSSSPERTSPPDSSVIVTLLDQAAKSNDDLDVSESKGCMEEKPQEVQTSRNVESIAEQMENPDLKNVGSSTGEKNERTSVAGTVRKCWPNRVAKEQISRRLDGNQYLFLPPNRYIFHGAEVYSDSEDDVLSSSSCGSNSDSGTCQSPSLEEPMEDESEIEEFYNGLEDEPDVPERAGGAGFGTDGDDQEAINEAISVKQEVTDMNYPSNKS

Compound	IC50
Cc1sc(NC(=O)Cn2nc([N+](=O)[O-])cc2C)c(C(N)=O)c1C	> 10 µM
CSc1c(CC(=O)NCCO)n(C)c2ccc(C)cc12	> 10 µM
Cc1sc(NC(=O)c2ccncc2)c(C(N)=O)c1C	> 10 µM
Cc1sc(NC(=O)C2CC2)c(C(N)=O)c1C	> 10 µM
NC(=O)c1c(NC(=O)C2CC2)sc2c1CCCCC2	> 10 µM
Cc1sc(NC(=O)c2cnccn2)c(C(N)=O)c1C	> 10 µM
Cc1sc(NC(=O)c2ccc(Br)o2)c(C(N)=O)c1C	> 10 µM
CC1CCc2c(sc(NC(=O)C3CCCC3)c2C(N)=O)C1 (stereo not shown)	< 1 µM
Cc1sc(NC(=O)C2CCCO2)c(C(N)=O)c1C (stereo not shown)	> 10 µM
CCC(=O)Nc1sc2c(c1C(N)=O)CCC(C)C2 (stereo not shown)	1 to 10 µM

Just for reference, patent US20050250794A1 is where these values come from.
